Entries and their measured log10 of TGI follow.
Test system: SN12C renal
assay.name: NCI tumour cell line growth inhibition, 48 h
Form field - Quantity: TGI; Unit: µM; Scale: log10

Sure, the documented log10 of TGI for `COc1c(Sc2ccccc2)cc(Sc2ccccc2)c2cccnc12` is 1.99

Sure, the documented log10 of TGI for CC12CC=CCC1CCC1C2CCC2(C)C(c3ccc(=O)oc3)CCC12O (centres undefined) is -0.33

Sure, the documented log10 of TGI for `C=C(C)[C@@H]1CC[C@]2(CO)CC[C@]3(C)[C@H](CC[C@@H]4[C@@](C)(CCCN)[C@H](C(=C)C)CC[C@]43C)[C@@H]12` is 0.44

Sure, the documented log10 of TGI for `COc1cc2c(cc1O)CCN(C)[C@H]2Cc1ccc(Oc2c(O)c(OC)cc3c2C[C@H]2c4c(c(OC)c(OC)c(OC)c4-3)CCN2C)cc1` is 1.03

Sure, the documented log10 of TGI for `C[C@]12CC[C@H]3[C@@H](CC[C@]4(O)C[C@@H](O)CC[C@]34CO)[C@@]1(O)CC[C@@H]2C1=CC(=O)OC1` is 1.04

src = PubChem BioAssay (NCI)
